- System: MUSK
- Condition Parameters: concentration: 1 μM, replicates: in singlicate; n = 1
Listed here: items and their measured %Inh.

| Compound | Measured Target | Result Units | %Inh |
| --- | --- | --- | --- |
| C[C@@H]1CCCCN1c1cc(-c2ccc3c(N)n[nH]c3c2)nc(N)n1 [GSK2258759] | MUSK | % | 5 |
| Fc1cc(Cl)ccc1Nc1ccnc2cc(-c3ccc(CN4CCCCC4)o3)ccc12 [GW560116] | MUSK | % | 0 |
| CN(C)CCN(C)C(=O)c1cc(-c2ccncc2)c(-c2ccc(Cl)c(O)c2)o1.Cl.Cl [SB-710397] | MUSK | % | 18 |
| Cc1cccc(-c2nc(-c3ccc(S(C)(=O)=O)cc3)sc2-c2ccnc(NCCc3ccccc3)c2)c1 | MUSK | % | 0 |
| Cc1nnc(-c2ccc3occ(-c4ccc(S(C)=O)cc4)c3c2)[nH]1 (centres unmarked) | MUSK | % | 16 |
| O=C(Nc1n[nH]c2nc(-c3nccs3)c(Br)cc12)C1CCCC1 [SB-742609] | MUSK | % | 31 |
| COc1ccc(CNC(=O)NC2CCN(c3ccnc(Nc4cc(OC)c(OC)c(OC)c4)n3)C2)cc1 (centres unmarked) [GSK1379748] | MUSK | % | 2 |
| Cc1cc(N2Cc3ccccc3C2)nc(Nc2ccc(S(=O)(=O)N3CCOCC3)cc2)n1.Cl [GSK1669917] | MUSK | % | 0 |

====

Listed here: items and their measured %Inh.
- System: INSR
- Condition Parameters: concentration: 1 μM, replicates: in singlicate; n = 1
Reported Metric: %Inh

| Compound | Measured Target | Recorded Value |
| --- | --- | --- |
| Cl.O=C(Nc1cccc(-c2nn3ncccc3c2-c2ccnc(Nc3cccnc3)n2)c1)c1c(F)cccc1F [GSK312879] | INSR | 11% |
| COc1ccc(C2=C(Nc3cccc(C(=O)O)c3)C(=O)NC2=O)cc1 [SB-390765] | INSR | 13% |
| Fc1cc(Cl)ccc1Nc1ccnc2cc(I)ccc12 [GW551191] | INSR | 0% |
| O=c1cc(N2CCOCC2)nc2n(Cc3cccc(Cl)c3Cl)ccn12 [GSK2286295] | INSR | 5% |
| COc1cccc(-c2cc(-c3c[nH]nc3-c3ccccn3)ccn2)c1 [GW680338] | INSR | 0% |

====

Consider compounds characterized by their pKd with CDK2.
pKd: −log10 of the molar value.

| Cpd Smiles | pKd |
| --- | --- |
| O=C(Nc1n[nH]c2nc(-c3nccs3)c(Br)cc12)C1CC1 | 6.46 |
| O=C(Nc1n[nH]c2nc(-c3nccs3)c(Br)cc12)C1CCCC1 | 6.55 |

====

Listed here: items and their measured %Inh.
- Test system: AURKB
- Condition Parameters: concentration: 1 μM, replicates: in singlicate; n = 1
Reported Metric: %Inh (%)

| Compound | Reported Metric | Recorded Value |
| --- | --- | --- |
| Cc1cc(NCC(c2ccccc2)c2ccccc2)nc(NCc2ccc(C(F)(F)F)cc2)n1 | %Inh | 15 |
| COc1ccc(Nc2nccc(NCCNC(=O)Nc3ccccc3F)n2)cc1 | %Inh | 36 |
| CC1=C(C(=O)Nc2cc3cn[nH]c3cc2F)C(c2ccc(C(F)(F)F)cc2)CC(=O)N1 (stereo not drawn) | %Inh | 1 |
| O=C(Nc1ccc2c(c1)OCO2)NC1CCN(c2ccnc(Nc3ccc(F)cc3)n2)C1 (stereo not drawn) | %Inh | 99.4 |
| Cc1c(Cn2ccn3c(=O)cc(N4CCOCC4)nc23)cccc1C(F)(F)F | %Inh | 0 |
| CS(=O)(=O)c1ccc(-c2c(-c3ncn[nH]3)sc(N3CCOCC3)c2C#N)cc1 | %Inh | 0 |
| COc1ccc(Nc2nccc(-c3cccc(NC(=O)c4cc5cc(F)ccc5[nH]4)c3)n2)cc1 | %Inh | 0 |
| CCn1c(-c2ccccn2)nc2cnccc21 | %Inh | 3 |
| Clc1cc(Cl)cc(Nc2ccnc(Nc3cc(Cl)cc(Cl)c3)n2)c1 | %Inh | 0 |

====

- System: SYK
- Condition Parameters: concentration: 1 μM, replicates: in singlicate; n = 1
Listed here: items and their measured %Inh.

| Molecule | %Inh |
| --- | --- |
| COc1ccc(C2=C(Nc3cccc(C(=O)O)c3)C(=O)NC2=O)cc1 [SB-390765] | 25% |
| Cl.NC(=O)c1cccc(Nc2nccc(Nc3ccc(Oc4cccc(Cl)c4)c(Cl)c3)n2)c1 [GW659008] | 1% |
| Fc1cc(Cl)ccc1Nc1ccnc2cc(-c3ccc(CN4CCCCC4)o3)ccc12 [GW560116] | 0% |
| Cn1ccc2ncnc(Oc3ccc(Nc4nc5ccccc5[nH]4)cc3)c21 | 0% |
| O=C(Nc1n[nH]c2cc(-c3cccc(F)c3F)ccc12)C1CC1 [SB-733894] | 0% |
| Cc1cccc(-c2nc(C)cc(Nc3ccncc3)n2)n1 [GSK257997] | 34% |
| Clc1cc(Cl)cc(Nc2ccnc(Nc3cc(Cl)cc(Cl)c3)n2)c1 [GSK175726] | 12% |
| COc1ccccc1CNC(=O)c1cc(C(=O)c2ccccc2C)c[nH]1 [GSK364507] | 16% |
| COc1ccc(Nc2nccc(-c3cccc(NC(=O)c4cc5cc(F)ccc5[nH]4)c3)n2)cc1 [GSK1229782] | 49% |

====

- System: YANK3
- Construct: gene STK32C

| Compound | Measured Target | Kd |
| --- | --- | --- |
| CCCc1ccc(S(=O)(=O)NC2CCN(c3ccnc(Nc4ccc(F)cc4)n3)C2)cc1 (stereo not shown) [GSK1379715] | YANK3 | > 10 µM |

====

Listed here: items and their measured pKd.
- System: SLK
pKd: −log10 of the molar value.

| Molecule | pKd |
| --- | --- |
| COc1cc2ncn(-c3cc(OCC4CCCO4)c(C(N)=O)s3)c2cc1OC (centres unmarked) | < 5.00 |
| Cc1ccccc1-n1cnc2c(N)ncnc21 | < 5.00 |

====

- Tested on: RIOK2
- Condition Parameters: concentration: 1 μM, replicates: in singlicate; n = 1
Reported Metric: %Inh (%)

| Cpd Smiles | Reported Metric | Recorded Value |
| --- | --- | --- |
| COc1cc2nccc(Nc3ccc(NC(=O)c4ccc(C)cc4)c(O)c3)c2cc1OC.Cl | %Inh | 13 |
| COc1cccc(-c2cc(-c3c[nH]nc3-c3ccccn3)ccn2)c1 | %Inh | 3 |
| Cc1cc(-c2ccc3c(c2)CC[C@@H](N[C@@H](C)c2ccccc2)C3)cnc1N.Cl | %Inh | 85 |
| Cl.Oc1ccc(-c2nc(-c3ccccc3)[nH]c2-c2ccncc2)cc1 | %Inh | 0 |
| O=C(Nc1n[nH]c2cc(-c3cccc(F)c3F)ccc12)C1CC1 | %Inh | 0 |
| COc1ccccc1-c1ccc2c(NC(=O)C3CC3)n[nH]c2n1 | %Inh | 9 |
| Cc1ccccc1-n1cnc2c(N)ncnc21 | %Inh | 0 |
| COc1ccc(Nc2nccc(NCCNC(=O)Nc3ccccc3F)n2)cc1 | %Inh | 0 |
| COc1ccc(Nc2nccc(-c3cccc(NC(=O)c4cc5cc(F)ccc5[nH]4)c3)n2)cc1 | %Inh | 3 |

====

- Test system: ABL1-nonphosphorylated
- Condition Parameters: concentration: 1 μM, replicates: in singlicate; n = 1
Reported Metric: %Inh (%)

| Compound | Reported Metric | Recorded Value |
| --- | --- | --- |
| Cc1c(O)cccc1Nc1ccnc2ccc(C(F)(F)F)cc12.Cl [GW466413] | %Inh | 42 |
| Nc1ncnc2[nH]c(-c3ccccc3)nc12 [AH5015] | %Inh | 7 |
| Cc1cccc(-c2nc(Nc3ccc4[nH]ncc4c3)c3ccccc3n2)n1 [GW857175] | %Inh | 19 |
| Clc1cc(Cl)cc(Nc2ccnc(Nc3cc(Cl)cc(Cl)c3)n2)c1 [GSK175726] | %Inh | 68 |
| Cn1ccc2ncnc(Oc3ccc(Nc4nc5ccccc5[nH]4)cc3)c21 | %Inh | 45 |
| COC(=O)c1c(-c2ccccc2)c2cc(OC)ccc2c(=O)n1Cc1ccccc1 | %Inh | 66 |
| Cc1cccc(-c2cc(Nc3ccncc3)c3ccccc3n2)n1 [GSK223675] | %Inh | 0 |
| COc1ccc(CNC(=O)NC2CCN(c3ccnc(Nc4cc(OC)c(OC)c(OC)c4)n3)C2)cc1 (stereo not drawn) [GSK1379748] | %Inh | 0 |
| Fc1cc(Cl)ccc1Nc1ccnc2cc(-c3ccc(CN4CCCCC4)o3)ccc12 [GW560116] | %Inh | 47 |

====

Listed here: items and their measured %Inh.
- Test system: WNK4
- Condition Parameters: concentration: 1 μM, replicates: in singlicate; n = 1

| Compound | %Inh (%) |
| --- | --- |
| Cc1csc(-c2nc(Nc3ccncc3)c3ccccc3n2)n1 [GW869640] | 13 |
| Cc1ccc(NC(=O)Nc2cccc(Cl)c2)cc1-c1ccc(C(=O)Nc2ccncc2)cc1 [GSK1398468] | 24 |
| COc1ccc(C2=C(Nc3cccc(C(=O)O)c3)C(=O)NC2=O)cc1 [SB-390765] | 24 |
| Cl.NC(=O)c1cccc(Nc2nccc(Nc3ccc(Oc4cccc(Cl)c4)c(Cl)c3)n2)c1 [GW659008] | 0 |
| Cc1cc(-c2ccc3c(c2)CC[C@@H](N[C@@H](C)c2ccccc2)C3)cnc1N.Cl [GW412617] | 0 |
| COc1cccc(NC(=O)NC2CCN(c3ccnc(Nc4ccc(F)cc4)n3)C2)c1 (stereo not shown) [GSK1379721] | 2 |
| Cn1ccc2ncnc(Oc3cccc(C(=O)Nc4ccccc4)c3)c21 | 0 |
| Fc1cc(Cl)ccc1Nc1ccnc2cc(I)ccc12 [GW551191] | 16 |
| CC(C)(C)c1ccc(C(=O)Nc2cn3cc(Cl)ccc3n2)cc1 | 0 |
| NC(=O)c1nnc2ccccc2c1N | 9 |
| Cc1cc(N2Cc3ccccc3C2)nc(Nc2ccc(S(=O)(=O)N3CCOCC3)cc2)n1.Cl [GSK1669917] | 10 |
| COc1ccccc1-c1ccc2c(NC(=O)C3CC3)n[nH]c2n1 [SB-711239] | 0 |
| COc1ccc(Nc2nccc(NCCNC(=O)Nc3ccccc3F)n2)cc1 [GSK1379901] | 37 |
| Cc1ccccc1-n1cnc2c(N)ncnc21 [SKF-97510] | 0 |
| Cc1nnc(-c2ccc3occ(-c4ccc(S(C)=O)cc4)c3c2)[nH]1 (stereo not shown) | 0 |
| O=c1cc(N2CCOCC2)nc2n(Cc3cccc(Cl)c3Cl)ccn12 [GSK2286295] | 0 |
| Cl.c1ccc(-c2n[nH]cc2-c2ccnc(-c3ccc(CN4CCOCC4)cc3)c2)nc1 [GW776245] | 0 |
| Cn1cncc1-c1ccc2ncnc(Nc3ccc(OCc4ccccc4)cc3)c2c1 [GW320571] | 0 |
| O=C1NC(=O)C(N2CCc3ccccc32)=C1c1ccccc1Cl [SB-373598] | 75 |

Where do the numbers come from? From paper PMC5540273.
